FYI, the data here is from paper PMC2939770.

Consider the following compounds and their measured IC50 readings.
# targetDesc: T. brucei 6PGDH (Trypanosoma brucei brucei, UniProt P31072)
# Sequence (P31072 1-479): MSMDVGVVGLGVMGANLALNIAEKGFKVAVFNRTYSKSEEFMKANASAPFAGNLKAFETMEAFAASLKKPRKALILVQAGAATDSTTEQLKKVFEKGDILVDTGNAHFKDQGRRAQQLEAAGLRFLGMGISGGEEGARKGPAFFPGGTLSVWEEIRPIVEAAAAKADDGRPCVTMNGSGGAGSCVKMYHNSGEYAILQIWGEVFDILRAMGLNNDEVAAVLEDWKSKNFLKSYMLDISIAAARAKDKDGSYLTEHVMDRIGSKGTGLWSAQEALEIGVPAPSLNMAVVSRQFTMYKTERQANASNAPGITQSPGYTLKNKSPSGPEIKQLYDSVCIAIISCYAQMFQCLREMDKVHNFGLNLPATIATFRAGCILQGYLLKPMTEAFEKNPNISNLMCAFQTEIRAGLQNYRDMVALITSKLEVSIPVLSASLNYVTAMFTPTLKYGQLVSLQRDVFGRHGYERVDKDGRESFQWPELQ
Report as a plain number; the unit µM is understood.

Past entries and their recorded results:
Cc1c(C(=O)O)oc2c1C(=O)CSC2: 51
O=C(O)C(=Cc1ccc([N+](=O)[O-])o1)C(=O)O: 56
O=C1CC(S(=O)(=O)[O-])c2ccccc2/C1=N/O.[Na+] (stereo not shown): 73

State its IC50 for this compound: O=C(O)c1cc(Cl)c(Cl)[nH]1
42

====

Here the recorded Ligand efficiency is given for each entry.
# targetDesc: UniProt:P31072
# protocolConditions: −RTLn(IC50)/HAC; HAC: heavy atom count

Cc1c(C(=O)O)oc2c1C(=O)CSC2: 0.42 (kcal/mol)/HAC
Cc1oc([N+](=O)[O-])cc1C(=O)O: 0.52 (kcal/mol)/HAC
N#C/C(=C\c1ccc([N+](=O)[O-])o1)C(=O)O: 0.48 (kcal/mol)/HAC
O=C(O)c1cc(Cl)c[nH]1: 0.66 (kcal/mol)/HAC

Note down Ligand efficiency recorded for Cc1c(C(=O)O)[nH]c(-c2[nH]c(C(=O)O)c(C)c2C)c1C
0.27 (kcal/mol)/HAC

Quick one: give measured Ligand efficiency for O=C(O)C(=Cc1ccc([N+](=O)[O-])o1)C(=O)O
0.36 (kcal/mol)/HAC

Determine from records and report Ligand efficiency for CCOC(=O)c1[nH]c(C(=O)O)c(C)c1C
0.40 (kcal/mol)/HAC

Return Ligand efficiency for the following compound: O=C1CC(S(=O)(=O)[O-])c2ccccc2/C1=N/O.[Na+] (stereo not shown)
0.33 (kcal/mol)/HAC

Give Ligand efficiency for O=C(O)c1cc2sccc2[nH]1
0.54 (kcal/mol)/HAC

Name the recorded Ligand efficiency of the compound listed here: O=C(O)c1cc(Cl)c(Cl)[nH]1
0.60 (kcal/mol)/HAC

====

# targetDesc: T. brucei 6PGDH (Trypanosoma brucei brucei, UniProt P31072)
# Sequence (P31072 1-479): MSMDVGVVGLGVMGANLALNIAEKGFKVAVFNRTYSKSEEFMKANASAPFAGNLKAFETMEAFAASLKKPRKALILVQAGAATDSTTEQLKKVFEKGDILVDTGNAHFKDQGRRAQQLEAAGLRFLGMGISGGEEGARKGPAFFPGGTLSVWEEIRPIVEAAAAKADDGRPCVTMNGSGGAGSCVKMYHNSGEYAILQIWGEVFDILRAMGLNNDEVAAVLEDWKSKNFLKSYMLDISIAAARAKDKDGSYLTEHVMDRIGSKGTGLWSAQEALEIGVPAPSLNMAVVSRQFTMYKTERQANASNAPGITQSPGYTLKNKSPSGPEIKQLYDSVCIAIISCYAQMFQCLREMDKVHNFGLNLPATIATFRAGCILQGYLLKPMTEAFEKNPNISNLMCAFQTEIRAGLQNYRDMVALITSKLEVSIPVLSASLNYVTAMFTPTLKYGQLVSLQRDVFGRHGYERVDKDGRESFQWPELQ
# protocolConditions: slope of the IC50 curve, recombinant Tb6PGDH
Each entry gets False if its Hill slope stays under 2, and True if its Hill slope is 2 or above.

As a guide, the following entries are already answered.
O=C(O)c1cc(Cl)c(Cl)[nH]1: True
O=C1C=C(S(=O)(=O)[O-])c2ccccc2C1=O.[K+]: True
Cc1c(C(=O)O)oc2c1C(=O)CSC2: False

Reported Hill slope at or above 2? O=C(O)C(=Cc1ccc([N+](=O)[O-])o1)C(=O)O
True

====

Record type: IC50 measurement. Applies to: T. brucei 6PGDH (Trypanosoma brucei brucei)
Express it in µM; write the number only.

Cc1oc([N+](=O)[O-])cc1C(=O)O: 28

Fill in reported IC50 for this entry: Cc1c(C(=O)O)[nH]c(-c2[nH]c(C(=O)O)c(C)c2C)c1C
114

Give the measured IC50 for O=C(O)c1cc2sccc2[nH]1
42

Quick one: give measured IC50 for CCOC(=O)c1[nH]c(C(=O)O)c(C)c1C
45

For O=C(O)c1cc(Cl)c[nH]1 , write its IC50.
43

Consider the compound N#C/C(=C\c1ccc([N+](=O)[O-])o1)C(=O)O . State its measured IC50.
5.8

====

# targetDesc: UniProt P31072
# protocolConditions: slope of the IC50 curve, recombinant Tb6PGDH
measureName: Hill slope
Answer field: number only, no words.

Example entries begin here.
O=C1CC(S(=O)(=O)[O-])c2ccccc2/C1=N/O.[Na+] (stereo not drawn): 1.4
O=C(O)c1cc(Cl)c[nH]1: 1.8
Cc1c(C(=O)O)[nH]c(-c2[nH]c(C(=O)O)c(C)c2C)c1C: 1.4

Tell me measured Hill slope for O=C(O)c1cc2sccc2[nH]1 please.
1.1

Determine from records and report Hill slope for CCOC(=O)c1[nH]c(C(=O)O)c(C)c1C
1.6

// Input: Cc1oc([N+](=O)[O-])cc1C(=O)O . Output its Hill slope only.
1.5
